Below is a list of entries, each paired with its recorded remaining activity at 10 µM value.
- study_system: androgen receptor (Homo sapiens, UniProt P10275, T878A)
- Construct: 2*10^6 LNCaP cells in 6 ml of RPMI 1640 without phenol red are grown; endogenous in cells; host or cells: LNCaP (human prostate cell line)
- protocol_description: cell-based
- condition_set: LNCaP, 48 h, read-out: AR Content [%] At 10 μM
Only the number, expressed in %, is required.

Consider the following illustrative entries.
CC1=C(CCCCCN2CCN(S(=O)(=O)c3cccc4nsnc34)CC2)C(=O)N(c2ccc(C#N)c(C(F)(F)F)c2)C1=O: 42
CC1=C(CCCCN2CCN(S(C)(=O)=O)CC2)C(=O)N(c2ccc(C#N)c(C(F)(F)F)c2)C1=O: 36
CC1=C(CCCCCCN2CCN(C(=O)Nc3ccc(F)cc3)CC2)C(=O)N(c2ccc(C#N)c(C(F)(F)F)c2)C1=O: 46
CSc1ccc(NC(=O)N2CCN(CCCCCCC3=C(C)C(=O)N(c4ccc(C#N)c(C(F)(F)F)c4)C3=O)CC2)cc1: 67
CC1=C(CCCCCCN2CCN(C(=O)COc3ccc(Cl)cc3)CC2)C(=O)N(c2ccc(C#N)c(C(F)(F)F)c2)C1=O: 37
CC1=C(CCCCN2CCN(C(=O)c3ccccc3Cl)CC2)C(=O)N(c2ccc(C#N)c(C(F)(F)F)c2)C1=O: 34

Consider the record given below.
Briefly, remaining activity at 10 µM measured for `CC1=C(CCCCCCN2CCN(C(=O)NC(C)C)CC2)C(=O)N(c2ccc(C#N)c(C(F)(F)F)c2)C1=O` : 74

----------
- study_system: androgen receptor (Homo sapiens, UniProt P10275, T878A)
- Construct: 2*10^6 LNCaP cells in 6 ml of RPMI 1640 without phenol red are grown; endogenous in cells; host or cells: LNCaP (human prostate cell line)
- protocol_description: cell-based
- condition_set: LNCaP, 48 h, read-out: AR Content [%] At 1 μM
Each entry below carries its recorded remaining activity at 1 µM.
Numeric only. Scale: %

CC(C)C(=O)N1CCN(CCCCCCN2C(=S)N(c3ccc(C#N)c(C(F)(F)F)c3)C(=O)C2(C)C)CC1: 71

Measured remaining activity at 1 µM, `CC1(C)C(=O)N(c2ccc(C#N)c(C(F)(F)F)c2)C(=S)N1CCCCCN1CCN(S(=O)(=O)c2ccc(C#N)cc2)CC1` : 75

Please fill in: remaining activity at 1 µM reported for `COc1ccccc1C(=O)N1CCN(CCCCCCC2=C(C)C(=O)N(c3ccc(C#N)c(C(F)(F)F)c3)C2=O)CC1` = 51

Record `CC1=C(CCCCCCN2CCN(C(=O)Nc3cc(Cl)nc(Cl)c3)CC2)C(=O)N(c2ccc(C#N)c(C(F)(F)F)c2)C1=O` , field remaining activity at 1 µM: 82

----------
- Test system: MaTu cells
- protocol_description: Model 3: Proliferation of non-prostate cells, MaTu
- Format: cell-based, human
- condition_set: 10 μM, 3-day treatment; percent of cell growth of solvent control
assay_metric: Proliferation in the Cell Line MaTu (%)
Dear colleague, please return just the value in %, with no unit written.

CC1=C(CCCCN2CCN(S(C)(=O)=O)CC2)C(=O)N(c2ccc(C#N)c(C(F)(F)F)c2)C1=O: 103

// next item, Proliferation in the Cell Line MaTu requested
Proliferation in the Cell Line MaTu recorded for this compound, CC(O)(CS(=O)(=O)c1ccc(F)cc1)C(=O)Nc1ccc(C#N)c(C(F)(F)F)c1 (centres unmarked) [Bicalutamide, reference compound] , is 97

----------
- study_system: androgen receptor (Homo sapiens, UniProt P10275, T878A)
- Construct: 2*10^6 LNCaP cells in 6 ml of RPMI 1640 without phenol red are grown; endogenous in cells; host or cells: LNCaP (human prostate cell line)
- protocol_description: cell-based
- condition_set: LNCaP, 48 h, read-out: AR Content [%] At 10 μM
Listed here: items and their measured remaining activity at 10 µM.
Answer with a number only, understood to be in %.

The examples below pair each entry with its known result.
CC1=C(CCCCCCN2CCN(C(=O)Nc3ccccc3C(F)(F)F)CC2)C(=O)N(c2ccc(C#N)c(C(F)(F)F)c2)C1=O: 62
CC1=C(CCCCN2CCN(C(=O)C3CCC3)CC2)C(=O)N(c2ccc(C#N)c(C(F)(F)F)c2)C1=O: 53
CC1=C(CCCCCCN2CCN(C(=O)Nc3cc(Cl)nc(Cl)c3)CC2)C(=O)N(c2ccc(C#N)c(C(F)(F)F)c2)C1=O: 36
CC1=C(CCCCCCN2CCN(C(=O)Nc3ccccc3)CC2)C(=O)N(c2ccc(C#N)c(C(F)(F)F)c2)C1=O: 52
CC1=C(CCCCN2CCN(S(=O)(=O)c3ccc(C#N)cc3)CC2)C(=O)N(c2ccc(C#N)c(C(F)(F)F)c2)C1=O: 53

Observed remaining activity at 10 µM, androgen receptor (Homo sapiens, UniProt P10275, T878A), `CC1=C(CCCCCCN2CCN(S(=O)(=O)c3ccc(C)cc3)CC2)C(=O)N(c2ccc(C#N)c(C(F)(F)F)c2)C1=O` : 59

Response field remaining activity at 10 µM (androgen receptor (Homo sapiens, UniProt P10275, T878A)) for item `CSc1cccc(NC(=O)N2CCN(CCCCCCC3=C(C)C(=O)N(c4ccc(C#N)c(C(F)(F)F)c4)C3=O)CC2)c1` : 41

----------
- study_system: androgen receptor (Homo sapiens, UniProt P10275, T878A)
- Construct: 2*10^6 LNCaP cells in 6 ml of RPMI 1640 without phenol red are grown; endogenous in cells; host or cells: LNCaP (human prostate cell line)
- protocol_description: cell-based
- condition_set: LNCaP, 48 h, read-out: AR Content [%] At 10 μM
assay_metric: remaining activity at 10 µM

# count of solved cases: 2
CC1=C(CCCCCCN2CCN(C(=O)CC(C)C)CC2)C(=O)N(c2ccc(C#N)c(C(F)(F)F)c2)C1=O: 65%
CC1=C(CCCCCCN2CCN(C(=O)Nc3cccc(F)c3)CC2)C(=O)N(c2ccc(C#N)c(C(F)(F)F)c2)C1=O: 45%

Could you now look at the following compound, please?
The compound listed as `CC1=C(CCCCCCN2CCN(S(=O)(=O)c3ccc(C#N)cc3)CC2)C(=O)N(c2ccc(C#N)c(C(F)(F)F)c2)C1=O` has a reported remaining activity at 10 µM of 35%

----------
Recorded remaining activity at 1 µM values for a group of molecules are listed next.
- study_system: androgen receptor (Homo sapiens, UniProt P10275, T878A)
- Construct: 2*10^6 LNCaP cells in 6 ml of RPMI 1640 without phenol red are grown; endogenous in cells; host or cells: LNCaP (human prostate cell line)
- Sequence (P10275 1-920 T878A): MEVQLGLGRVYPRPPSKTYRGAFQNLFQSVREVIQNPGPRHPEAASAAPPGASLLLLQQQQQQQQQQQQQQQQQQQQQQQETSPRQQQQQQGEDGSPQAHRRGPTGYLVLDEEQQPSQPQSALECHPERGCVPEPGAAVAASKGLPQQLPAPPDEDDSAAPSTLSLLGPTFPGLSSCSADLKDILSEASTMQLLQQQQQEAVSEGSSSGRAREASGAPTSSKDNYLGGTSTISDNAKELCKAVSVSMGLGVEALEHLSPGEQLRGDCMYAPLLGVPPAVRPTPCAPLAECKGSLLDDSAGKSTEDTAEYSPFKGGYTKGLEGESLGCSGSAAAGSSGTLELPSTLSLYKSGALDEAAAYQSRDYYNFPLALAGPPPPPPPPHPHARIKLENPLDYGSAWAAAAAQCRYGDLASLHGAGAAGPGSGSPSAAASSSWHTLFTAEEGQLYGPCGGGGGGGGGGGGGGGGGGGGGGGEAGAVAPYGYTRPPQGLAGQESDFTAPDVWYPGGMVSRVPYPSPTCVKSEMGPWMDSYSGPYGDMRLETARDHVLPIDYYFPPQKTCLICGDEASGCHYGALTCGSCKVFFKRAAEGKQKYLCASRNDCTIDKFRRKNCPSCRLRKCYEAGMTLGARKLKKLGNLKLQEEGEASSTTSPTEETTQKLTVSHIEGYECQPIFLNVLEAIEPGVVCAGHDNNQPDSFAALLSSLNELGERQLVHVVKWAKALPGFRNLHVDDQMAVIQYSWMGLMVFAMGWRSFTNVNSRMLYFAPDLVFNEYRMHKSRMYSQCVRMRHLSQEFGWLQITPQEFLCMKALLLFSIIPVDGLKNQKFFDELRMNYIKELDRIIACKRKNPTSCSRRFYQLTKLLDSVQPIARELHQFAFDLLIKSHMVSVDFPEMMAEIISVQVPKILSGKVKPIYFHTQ
- protocol_description: cell-based
- condition_set: LNCaP, 48 h, read-out: AR Content [%] At 1 μM
Field format: number, assumed %, no unit text.

Please review the following examples before continuing.
CC(C)C(=O)N1CCN(CCCCN2C(=S)N(c3ccc(C#N)c(C(F)(F)F)c3)C(=O)C2(C)C)CC1 [Example 546]: 68
CCS(=O)(=O)N1CCN(CCCCCN2C(=S)N(c3ccc(C#N)c(C(F)(F)F)c3)C(=O)C2(C)C)CC1 [Example 629]: 54
CSC(=O)N1CCN(CCCCCCN2C(=S)N(c3ccc(C#N)c(C(F)(F)F)c3)C(=O)C2(C)C)CC1 [Example 696]: 60
CC(CN1C(=S)N(c2ccc(C#N)c(C(F)(F)F)c2)C(=O)C1(C)C)N1CCN(C(=O)c2cccs2)CC1 (centres unmarked) [Example 524]: 61

Next, consider the following molecule.
remaining activity at 1 µM for CC1=C(CCCCN2CCN(S(C)(=O)=O)CC2)C(=O)N(c2ccc(C#N)c(C(F)(F)F)c2)C1=O [Example 117] is 57
